# protocol-summary: reversal of MRP1-mediated doxorubicin resistance, pilot screen, H69AR cells, doxorubicin co-treatment (AID 601)
# study-conditions: H69AR cells + 2 uM doxorubicin, CellTiter-Glo, 72 h; at 10 µM; stronger effect = higher value
endpoint-label: differential viability (reversal) (%)
Just the number in %, nothing appended.

Past entries and their recorded results:
S=c1[nH]nc(-c2ccco2)n1-c1cccc2ccccc12 : 3.69
COc1cccc(-c2noc(-c3cccs3)n2)c1 : -29.2
CN(C)CCCN1C(=O)c2oc3ccccc3c(=O)c2C1c1cccs1 (stereo unspecified) : 5.31
COc1cc(C)nc(NS(=O)(=O)c2ccc(C)cc2)n1 : -1.31
COc1ccc(-c2noc(CN3CCC(Cc4ccccc4)CC3)n2)cc1 : 4.6
Cc1cc(C)cc(NC(=O)C2CCCN(c3nccc(C)n3)C2)c1 (stereo unspecified) : 12.9
COc1cccc2cc(C(=O)N3CCN(C45CC6CC(CC(C6)C4)C5)CC3)c(=O)oc12 : 12.5
C=CCn1c(Cc2cccs2)nnc1SCC(=O)Nc1ccc(OC)c(OC)c1 : -5.02
O=C(COc1ccccc1Cl)NCc1ccco1 : 15.4
COC(=O)c1ccc(-c2sc3nc(N4CCOCC4)c4c(c3c2N)CCCC4)o1 : -1.13

(Q) Quick one: differential viability (reversal) of Cc1ccc(NC(=O)C2CCCN(S(=O)(=O)c3cnc[nH]3)C2)cc1F (stereo unspecified) ?
(A) -0.16

(Q) Quick one: differential viability (reversal) of CS(=O)(=O)N1CCCC(C(=O)NCCCN2CCc3ccccc3C2)C1 (stereo unspecified) ?
(A) 7.38

(Q) Quick one: differential viability (reversal) of `CS(=O)(=O)NCc1ccc(C(=O)NCc2ccccc2)cc1` ?
(A) 18.6

(Q) Quick one: differential viability (reversal) of `CCc1nnc(NC(=O)CN2CCN(c3ccccc3OC)CC2)s1` ?
(A) 25.5

(Q) Quick one: differential viability (reversal) of `Cn1c(SCC(=O)Nc2ccc3c(c2)OCO3)nnc1-c1cnccn1` ?
(A) 6.5

(Q) Quick one: differential viability (reversal) of `Cc1ccc2oc(C(=O)Nc3c(C)n(C)n(-c4ccccc4)c3=O)c(C)c2c1` ?
(A) 20.3

(Q) Quick one: differential viability (reversal) of `Cc1ccccc1C(=O)NC1CCN(CC(=O)Nc2nccs2)CC1` ?
(A) 11.6

---

# protocol-summary: growth inhibitors of H69AR lung tumor, primary screen, human, duplicate replicates (AID 580);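 further: 100% = mean luminescence of untreated wells and 0% = no signal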
# study-conditions: H69AR lung tumor cells viability, ATP luminescence, 72 h; at 10 µM; stronger effect = lower value
Mark y for viability under 90%, n if at or over.

Worked cases, answers included:
O=C(O)Cn1cc2c(n1)CCCC2 : n
Cc1cc(C)nc(N2CCC(C(=O)NC3CCCCCC3)CC2)n1 : n
CC(C(=O)NCCCN1CCOCC1)n1cccc1C(=O)c1ccccc1 (configuration not stated) : n
O=C1CN(Cc2ccccc2)C(=NCc2ccco2)S1 : y
O=C(CN1C(=O)c2ccccc2C1=O)NCC1COc2ccccc2O1 (configuration not stated) : n

(Q) Bench note: check whether `Cc1cc(C)n(-c2cc(N3CCOCC3)nc(-c3ccccc3)n2)n1` shows viability below 90%
(A) y

(Q) Bench note: check whether `CCCCc1nc(NCCNC(=O)c2ccco2)c(C#N)c2c1CSC(C)(C)C2` shows viability below 90%
(A) y

(Q) Bench note: check whether `O=C(Cn1nnc(-c2cccc(C(F)(F)F)c2)n1)NC(=O)NCc1ccco1` shows viability below 90%
(A) y

(Q) Bench note: check whether `Cc1cc(Oc2ccccc2)nc(-c2ccccc2)n1` shows viability below 90%
(A) n

(Q) Bench note: check whether `Cc1ccc(S(=O)(=O)C2(C(=O)Nc3cccnc3)CC2)cc1` shows viability below 90%
(A) n

(Q) Bench note: check whether `CC(C)(C)N(Cc1cc2ccccc2[nH]c1=O)C(=O)C1CCCCC1` shows viability below 90%
(A) y

(Q) Bench note: check whether `CC1(C)NC(=O)N(CNc2cc(Cl)ccc2Cl)C1=O` shows viability below 90%
(A) n

(Q) Bench note: check whether `COc1ccc(C(=O)NCCSc2ccccn2)cc1` shows viability below 90%
(A) n

(Q) Bench note: check whether `O=C(c1cccnc1NCc1ccccc1)N1CCOCC1` shows viability below 90%
(A) n

(Q) Bench note: check whether `COc1ccc(S(=O)(=O)N(C)c2ccc(C(=O)N3CCOCC3)cc2)cc1` shows viability below 90%
(A) n

(Q) Bench note: check whether `O=C(CCN1CCN(c2ccc(F)cc2)CC1)Nc1ccccc1F` shows viability below 90%
(A) y

(Q) Bench note: check whether `O=C(O)CN1C(=O)CNC1=O` shows viability below 90%
(A) n

(Q) Bench note: check whether COc1cccc(C(=O)Nc2ncc3c(n2)CC(C)CC3=O)c1 (configuration not stated) shows viability below 90%
(A) n

(Q) Bench note: check whether `CCOCCc1nnc(NC(=O)c2ccc(OC)c(OC)c2)s1` shows viability below 90%
(A) n

(Q) Bench note: check whether `CCOc1ccc2nc(SCC(=O)N3CCCCCC3)c(C#N)cc2c1` shows viability below 90%
(A) y

(Q) Bench note: check whether `COc1ccc(-n2c(SCC(=O)Nc3ccc(C(=O)O)cc3)nnc2-c2cccs2)cc1` shows viability below 90%
(A) n
